Consider the following IC50 data for HPK1 (Homo sapiens (Human)), collected from several reports.

Recorded IC50, per entry:
Cc1c(-c2cc3nc(Nc4cnn(C5CCN(C6(C)COC6)CC5)c4)ncc3c(N)c2F)cnc2c1NCCO2 ... 0.12 nM
C[C@@H]1CN(c2c(NC(=O)c3ccc(=O)n(-c4c(F)cccc4F)n3)ccc3nn(C45CC(C(F)(F)F)(C4)C5)cc23)C[C@@H]1N ... < 100 nM
CC(C)n1ncc2c(N3C[C@H](N)C4(CC4)C3)c(NC(=O)c3ccc(=O)n(-c4c(F)cccc4F)n3)cc(F)c21 ... < 100 nM

Req: // lookup IC50 | system=HPK1 (Homo sapiens (Human)) | key= `C[C@H]1CN(c2c(NC(=O)c3ccc(=O)n(-c4c(F)cccc4F)n3)ccc3nn(C4(C)CC4)cc23)C[C@@H]1N`
Resp: < 100 nM

Req: // lookup IC50 | system=HPK1 (Homo sapiens (Human)) | key= `O=C1NCc2c(-c3cnc4cc(F)ccn34)ccc(Nc3ccc([C@H]4CCOC4)c(CN4CCC[C@@H]4CO)n3)c21`
Resp: < 100 nM

Req: // lookup IC50 | system=HPK1 (Homo sapiens (Human)) | key= `C[C@H](c1nc(Nc2ccc(-c3cnc4cc(F)ccn34)c3c2C(=O)NC3)ccc1[C@H]1CCOC1)N(C)C`
Resp: < 100 nM

Req: // lookup IC50 | system=HPK1 (Homo sapiens (Human)) | key= `O=C1NCc2c(-c3cnc4cccnn34)ncc(Nc3ccc(N4CCC(O)CC4)cn3)c21`
Resp: 100 to 1000 nM

Req: // lookup IC50 | system=HPK1 (Homo sapiens (Human)) | key= `O=C1NCc2c(-c3cnc4cc(OCCO)ccn34)ccc(Nc3ccc(N4CCOCC4)cn3)c21`
Resp: < 100 nM

Req: // lookup IC50 | system=HPK1 (Homo sapiens (Human)) | key= `Cc1cc(-c2cnc(N)c(Oc3cnn(CC4(F)CCOCC4)c3)n2)cc2c1CCN(C)C2`
Resp: 4.5 nM

Req: // lookup IC50 | system=HPK1 (Homo sapiens (Human)) | key= `COc1cc2c(cc1Nc1ncc(C(N)=O)c(Nc3ccc(F)c(F)c3F)n1)CN(C)CC2`
Resp: 2.4 nM

Req: // lookup IC50 | system=HPK1 (Homo sapiens (Human)) | key= `C[C@@H]1CN(c2c(NC(=O)c3ccc(=O)n(-c4c(F)cccc4F)n3)ccc3c2nc(C(C)(C)C)n3C)C[C@@H]1N`
Resp: < 100 nM

Req: // lookup IC50 | system=HPK1 (Homo sapiens (Human)) | key= `O=C1NCc2c(-c3cnn4c3CCCC4)ncc(Nc3ccc(N4CCC(O)CC4)cn3)c21`
Resp: 100 to 1000 nM

Req: // lookup IC50 | system=HPK1 (Homo sapiens (Human)) | key= COc1cc2c(cc1Nc1ncc(C(N)=O)c(NC3CC4CCC(C3)N4)n1)CN(C)CC2 (stereo not drawn)
Resp: 106 nM

Req: // lookup IC50 | system=HPK1 (Homo sapiens (Human)) | key= COCc1cc(F)c(-c2cc3c(-c4ccc5c(c4)OCC4CN(C)CCN54)n[nH]c3cc2C#N)c(F)c1 (stereo not drawn)
Resp: ≤ 10 nM

Req: // lookup IC50 | system=HPK1 (Homo sapiens (Human)) | key= Cc1c(-c2cc3nc(Nc4cccc5c4CC(C)(C)N(C)C5)ncc3c(N)c2F)cnc2c1NCCO2 (single isomer, unassigned)
Resp: 100 nM
